Reported Bottom (best-fit) values are given for each entry in this list.
Target: T1, cynomolgus TIGIT over-expressed on CHO-K1 cells (cynomolgus, UniProt A0A7N9I9V4 89-312)
T1 construct: whole, on cells; also called CHO-K1/cynomolgus TIGIT cells
T1 sequence (A0A7N9I9V4 entry or part of it): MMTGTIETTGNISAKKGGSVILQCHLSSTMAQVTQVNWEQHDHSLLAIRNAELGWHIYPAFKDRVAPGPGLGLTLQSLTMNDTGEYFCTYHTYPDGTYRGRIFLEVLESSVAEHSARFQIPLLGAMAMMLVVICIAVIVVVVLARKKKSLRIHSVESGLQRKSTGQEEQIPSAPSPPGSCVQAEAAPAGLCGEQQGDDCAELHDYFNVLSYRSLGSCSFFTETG
Experiment: FACS, CHO-K1 cells over-expressing cynomolgus TIGIT
I'd appreciate a reply containing only the number, no unit.

[[record]]
binder = "92E9D4B4 (antibody, V domains shown, Mouse monoclonal antibody; also called mouse anti-human TIGIT monoclonal antibody 92E9D4B4) VH: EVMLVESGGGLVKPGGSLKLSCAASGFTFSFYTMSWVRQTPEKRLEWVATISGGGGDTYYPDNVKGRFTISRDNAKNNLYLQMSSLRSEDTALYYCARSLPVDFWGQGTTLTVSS VL: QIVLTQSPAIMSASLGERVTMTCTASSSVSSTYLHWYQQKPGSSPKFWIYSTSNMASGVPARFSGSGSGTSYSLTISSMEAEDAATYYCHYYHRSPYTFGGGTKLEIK"
readout = "Bottom (best-fit)"
val = 17.7


The value of Bottom (best-fit) measured for the binder 128E3G7F5 (antibody, V domains shown, Mouse monoclonal antibody; also called mouse anti-human TIGIT monoclonal antibody 128E3G7F5) VH: EVLLQQSGPELVKTGASVKISCKASGYSFTAYYMHWVKQSHGKSLEWIGYISCYNGATTYNQKFKGKATFTVDTSSTTAYMQFNSLTSEDSAVYYCARRVYYGYDEALVYWGQGTSVTVSS VL: DIVMTQSPSSLSVSAGEKVTMTCKSSQSLLNSGNQKNYLAWYQQKPGQPPKLLIYGASTRGSGVPDRFTGSGSGTDFTLTISSVQAEDLAVYYCQNDHSYPYTFGGGTKLEIK turned out to be 7.5
